target-or-system: human delta receptor (Homo sapiens, UniProt P41143)
Sequence (P41143 whole entry): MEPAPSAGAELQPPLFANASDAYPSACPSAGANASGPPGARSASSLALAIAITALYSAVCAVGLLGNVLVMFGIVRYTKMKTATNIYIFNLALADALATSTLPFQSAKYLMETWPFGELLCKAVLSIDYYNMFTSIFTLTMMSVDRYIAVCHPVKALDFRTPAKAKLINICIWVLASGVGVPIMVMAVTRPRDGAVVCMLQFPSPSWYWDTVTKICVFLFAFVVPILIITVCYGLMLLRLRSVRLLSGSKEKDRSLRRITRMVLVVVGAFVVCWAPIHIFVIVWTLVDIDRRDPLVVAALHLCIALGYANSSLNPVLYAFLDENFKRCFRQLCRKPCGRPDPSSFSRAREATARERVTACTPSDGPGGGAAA
procedure-details: [35S]GTP γS binding functional assay, CHO cell membranes
pEC50: −log10 of the molar value.
readout: pEC50

C[C@H](C1CC1)N1CC[C@]23CCCC[C@H]2[C@H]1Cc1ccc(O)cc13    8.05

###

target-or-system: human kappa receptor (Homo sapiens, UniProt P41145)
Sequence (P41145 whole entry): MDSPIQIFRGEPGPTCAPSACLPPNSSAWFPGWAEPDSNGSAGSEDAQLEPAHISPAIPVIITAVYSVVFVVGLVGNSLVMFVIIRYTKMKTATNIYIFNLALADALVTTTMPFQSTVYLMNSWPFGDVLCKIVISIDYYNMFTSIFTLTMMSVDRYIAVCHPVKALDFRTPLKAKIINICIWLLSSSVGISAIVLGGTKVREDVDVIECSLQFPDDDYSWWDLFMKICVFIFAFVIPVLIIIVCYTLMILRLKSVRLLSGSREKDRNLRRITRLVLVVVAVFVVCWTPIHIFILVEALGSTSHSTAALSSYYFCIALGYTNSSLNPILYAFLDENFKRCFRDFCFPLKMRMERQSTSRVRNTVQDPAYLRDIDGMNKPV
pKi: −log10 of the molar value.
readout: pKi

C[C@H](C1CC1)N1CC[C@]23CCCC[C@H]2[C@H]1Cc1ccc(O)cc13 [Compound 5]    9.54
